Let's go through some IC50 measurements on PDE 3 (cGMP inhibitable cAMP PDE) (Homo sapiens, UniProt Q14432) together.
Sequence (Q14432 whole entry): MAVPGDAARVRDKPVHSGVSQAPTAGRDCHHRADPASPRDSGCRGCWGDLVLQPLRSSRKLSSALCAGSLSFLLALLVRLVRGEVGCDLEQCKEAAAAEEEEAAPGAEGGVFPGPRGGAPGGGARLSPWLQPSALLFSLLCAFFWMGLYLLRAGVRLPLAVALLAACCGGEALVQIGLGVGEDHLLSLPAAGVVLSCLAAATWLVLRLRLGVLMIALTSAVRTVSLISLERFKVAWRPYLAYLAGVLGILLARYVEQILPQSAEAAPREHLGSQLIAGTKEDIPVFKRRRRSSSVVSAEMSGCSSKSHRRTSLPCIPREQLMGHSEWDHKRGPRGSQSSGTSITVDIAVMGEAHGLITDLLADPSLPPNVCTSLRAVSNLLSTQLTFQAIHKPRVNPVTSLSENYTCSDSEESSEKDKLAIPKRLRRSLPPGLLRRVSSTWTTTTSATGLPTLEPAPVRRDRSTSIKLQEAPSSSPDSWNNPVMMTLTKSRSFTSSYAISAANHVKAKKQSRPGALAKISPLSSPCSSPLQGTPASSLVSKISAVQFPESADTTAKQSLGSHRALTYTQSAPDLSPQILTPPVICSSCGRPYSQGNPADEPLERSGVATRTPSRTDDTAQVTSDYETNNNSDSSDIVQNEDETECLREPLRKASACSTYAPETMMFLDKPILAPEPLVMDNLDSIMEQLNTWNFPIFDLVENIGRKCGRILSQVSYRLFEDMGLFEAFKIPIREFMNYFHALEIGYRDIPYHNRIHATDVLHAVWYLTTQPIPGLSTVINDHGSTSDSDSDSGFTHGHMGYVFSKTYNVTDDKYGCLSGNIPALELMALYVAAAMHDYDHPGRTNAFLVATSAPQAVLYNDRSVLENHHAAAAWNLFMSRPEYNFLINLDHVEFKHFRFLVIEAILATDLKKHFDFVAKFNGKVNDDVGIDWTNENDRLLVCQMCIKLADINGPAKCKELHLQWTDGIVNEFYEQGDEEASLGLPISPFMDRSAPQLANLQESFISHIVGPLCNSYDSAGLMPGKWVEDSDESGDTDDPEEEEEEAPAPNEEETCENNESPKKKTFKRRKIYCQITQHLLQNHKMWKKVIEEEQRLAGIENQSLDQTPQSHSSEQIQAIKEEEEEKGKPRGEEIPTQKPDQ

In the examples that follow, each entry is paired with its recorded IC50.
COc1ccc(CNc2nc(-c3cccnc3)nc3sc4c(c23)CCN(Cc2ccccc2)C4)cc1Cl [1-4]	6.1 µM
COc1ccc(CNc2nc(C(=O)Nc3ccccc3)nc3sc4c(c23)CCN(C(C)C)C4)cc1Cl [1-75]	> 10 µM
COc1ccc(CNc2nc(C(=O)NCc3ccccc3)nc3sc4c(c23)CCN(C)C4)cc1Cl [1-79]	> 10 µM

Kindly consider the entry below.
Lookup: Observed IC50 on PDE 3 (cGMP inhibitable cAMP PDE) (Homo sapiens, UniProt Q14432) for COc1ccc(CNc2nc(-c3ccc4c(c3)OCO4)nc3sc4c(c23)CCN(Cc2ccccc2)C4)cc1Cl [1-1] , please.
Found: > 10 µM
